Entry source: PubChem BioAssay (NCI)

Assign growth inhibition to each entry below.
# PROCEDURE_SUMMARY: NCI Yeast Anticancer Drug Screen. Data for the cln2 rad14 strain (AID 165);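 note: 0% = growth equal to vehicle treated cultures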
# CONDITION: S. cerevisiae cln2 rad14 strain, at 50.0 µM, stronger effect = higher value
Compounds without any hit were thinned out: in the full panel of roughly 79,000, 15% have a hit.
Could you give me the number in %? Just the number is fine.

Exercise: Item C#[N+]CCOP(=O)(OCC1OC(n2cc(C)c(=O)[nH]c2=O)CC1N=[N+]=[N-])O[C@H]1CC[C@@]2(C)C(=CC[C@H]3[C@@H]4CC[C@H](C(C)/C=C/C(CC)C(C)C)[C@@]4(C)CC[C@@H]32)C1 (stereo not given in full) has what recorded growth inhibition?
Key: -7.4

Exercise: What does the data say about its growth inhibition? Entry: CC12CCC(O)CC1=CCC1C2CCC2(C)C(C(O)CC(O)(C(F)(F)F)C(F)(F)F)CCC12 (stereo not given)
Key: 3.95

Exercise: Which growth inhibition is listed for N#C/C(=C\c1cccc(Br)c1)c1nc2ccccc2c(=O)[nH]1 ?
Key: 1.55

Exercise: For O=C(CN1C(=O)c2cccc3c(Br)ccc(c23)C1=O)c1ccc(Cl)cc1 , what is its reported growth inhibition?
Key: 5

Exercise: I have this molecule here, Cn1c(=O)[nH]c(=O)c2[nH]c(=O)c(=O)n(C)c21 , and I need its recorded growth inhibition.
Key: -1.9

Exercise: // lookup growth inhibition for Cc1ccc([N+](=O)[O-])c2c(NCCNC(=O)Cn3ccnc3[N+](=O)[O-])ccnc12
Key: -0.7

Exercise: Please give the measured growth inhibition for this molecule: CCCCCCC(C)CC(=O)O (stereo not given)
Key: -59

Exercise: May I ask what growth inhibition has been recorded for COC(=O)C1CCC(/C(C#N)=C2/CCC(C(=O)OC)[N-]2)=N1.COC(=O)C1CCC(/C(C#N)=C2/CCC(C(=O)OC)[N-]2)=N1.[Cu+2] (stereo not given) ?
Key: -43.3

Exercise: Fill in the blank: the reported growth inhibition of COC(=O)C(CCC1(C)OCCO1)=[N+]=[N-] is ____.
Key: 2.85

Exercise: For the molecule shown here, CC1/C(=N/O)CC(c2ccccc2)N(N=O)C1c1ccccc1 (stereo not given) , give the reported growth inhibition.
Key: 18.8

Exercise: Give its growth inhibition value. Item: CC1c2ccccc2-c2ccccc21
Key: -3.15

Exercise: Which growth inhibition value belongs to O=c1[nH]c(=O)c2ncn(-c3ccc(Cl)cc3)c2[nH]1 ?
Key: -37.5

Exercise: Which value of growth inhibition has been reported for CC(=O)OCCOCNC(=S)NN in the records?
Key: -16.3

Exercise: Requested read-out: growth inhibition. Entry: CC(=O)Oc1ccccc1-c1cc2ccccc2oc1=O
Key: 5.15

Exercise: I would be grateful if you could share the reported growth inhibition for CC1CCCCC1(O)C(C(=O)O)c1ccccc1 (stereo not given) .
Key: -1.95

Exercise: Which measured growth inhibition value corresponds to Cc1cc(Br)cc2c1NC(=O)C(C)C2C (stereo not given) ?
Key: -8.95

Exercise: Query (molecule): O=[N+]([O-])C(/C=C(\Cl)[N+](=O)[O-])=C(N1CCCCC1)N1CCCCC1 ; field requested: growth inhibition
Key: -5.55

Exercise: // query growth inhibition value for entry CCCNC(=O)C1C(=O)C(=O)N(CCC)C1=O (stereo not given)
Key: -4.5

Exercise: State the recorded growth inhibition for this entry: COc1nc2cc(C)c(C)cc2n1C1OC(CO)C(O)C1O (stereo not given)
Key: -8.3

Exercise: Can you look up the measured growth inhibition of O=CNC(Cc1cnc[nH]1)C(=O)O (stereo not given) for me?
Key: -68.2

Exercise: Which growth inhibition value is on record for N#CN=C(N(Cc1ccccc1)Cc1ccccc1)N(Cc1ccccc1)Cc1ccccc1 ?
Key: 20.6

Exercise: Which growth inhibition is listed for CCCCCCCCCCCCOc1ccc(F)cc1C ?
Key: 4.6

Exercise: // growth inhibition lookup, key: Cc1c(CCNC(=O)C(F)(F)F)ccc2c1[nH]c1ccccc12
Key: -41.4

Exercise: I would be grateful if you could share the reported growth inhibition for CCNC(=O)NS(=O)(=O)c1ccc(Sc2ccc(Cl)cc2)nc1 .
Key: -5.7

Exercise: Find the recorded growth inhibition belonging to CC(=O)Nc1cccc(NC(C)=O)c1 and report it.
Key: -17.9

Exercise: Reported growth inhibition for CCCc1cc2c3c(c(=O)oc2cc1O)CCCC3 : what is it?
Key: 89

Exercise: Give the measured growth inhibition of Cc1ccc(NC(=O)CCCC(=O)CC(=O)c2ccc(Br)cc2)cc1 .
Key: -26.2

Exercise: What does the data say about its growth inhibition? Entry: CCOc1ccc(NC(=O)c2c(N/N=C/c3ccc(OC)cc3)nc(=O)[nH]c2C)cc1
Key: -8.7

Exercise: Sample COc1cc([N+](=O)[O-])cc2c1OC1(C=C2)Oc2ccccc2N1C (stereo not given) — what was its growth inhibition?
Key: -16.8

Exercise: Looking for the measured growth inhibition of CC(N)c1ccc2ccccc2c1O (stereo not given) , can you help?
Key: -11.2

Exercise: Param item = O=C(CCCC(=O)N/N=C/c1cc(Cl)ccc1[N+](=O)[O-])N/N=C\c1cc(Cl)ccc1[N+](=O)[O-] ; retrieve measured growth inhibition.
Key: 10.7

Exercise: Consider the molecule shown here: CCN(CC)S(=O)(=O)Nc1c(C)n(C)n(-c2ccccc2)c1=O What is its recorded growth inhibition?
Key: -3.7

Exercise: Query (molecule): CCC(=O)OC1C(OC2C(C)C(OC3CC(C)(OC)C(O)C(C)O3)C(C)C(=O)OC(CC)C(C)(O)C(O)C(C)C(=O)C(C)CC2(C)O)OC(C)CC1N(C)C (stereo not given) ; field requested: growth inhibition
Key: 5.7

Exercise: # query: growth inhibition of entry COc1cc2c(cc1OC)C1(CCCl)C3CC4C(=CCOC5CC(=O)N2C1C54)CN3C(=O)Cc1ccccc1 (stereo not given)
Key: 11.2

Exercise: Look up growth inhibition for this molecule: C=CCc1c(Cl)nc(Cl)nc1Cl
Key: -69.2

Exercise: May I ask what growth inhibition has been recorded for O=C1CCC(C(Sc2ccccc2)(Sc2ccccc2)Sc2ccccc2)C1 (stereo not given) ?
Key: -7.2

Exercise: Reported growth inhibition, molecule CNC(=O)c1cc2nc3ccccc3c(=O)n2c2ccccc12 : ____
Key: -20.6

Exercise: Give its growth inhibition value. Item: OCC1CCCCCCCCCC1
Key: 25.1

Exercise: What value of measured growth inhibition is listed for CC(=O)C(C)C(C)=O ?
Key: -21.6

Exercise: What value of growth inhibition has been recorded for this entry: O=c1[nH]c(=O)c2ncn(-c3ccc([N+](=O)[O-])cn3)c2[nH]1
Key: 5.4

Exercise: # get_value(readout='growth inhibition', item= CCOC(=O)c1ccc(NC(=O)SCCC(=O)O)cc1 )
Key: 15.8

Exercise: Quick one: growth inhibition for Nc1cc2c(cc1[N+](=O)[O-])-c1cccc(F)c1C2 ?
Key: 10.8

Exercise: I'd like to know its growth inhibition. The molecule in question is CC(C)NNC(N)=O
Key: -8.1

Exercise: I'd like to know its growth inhibition. The molecule in question is CCN=NNc1ccc(C#N)cc1
Key: 6.1

Exercise: Please look up its growth inhibition: CN1C(=O)C2C(C1=O)[C@H]1c3ccccc3C=CN1[C@@H]2C(=O)c1ccccc1 (stereo not given in full)
Key: 0.6
